# TARGET: Receptor tyrosine-protein kinase erbB-2 (Homo sapiens); note: in other assays of this panel Not Active means under 50% inhibition at 10 µM;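 note: inhibition of HER2 kinase enzyme activity, measured with Poly(Glu:Tyr) as the phosphorylation substrate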
# Sequence (P04626 whole entry): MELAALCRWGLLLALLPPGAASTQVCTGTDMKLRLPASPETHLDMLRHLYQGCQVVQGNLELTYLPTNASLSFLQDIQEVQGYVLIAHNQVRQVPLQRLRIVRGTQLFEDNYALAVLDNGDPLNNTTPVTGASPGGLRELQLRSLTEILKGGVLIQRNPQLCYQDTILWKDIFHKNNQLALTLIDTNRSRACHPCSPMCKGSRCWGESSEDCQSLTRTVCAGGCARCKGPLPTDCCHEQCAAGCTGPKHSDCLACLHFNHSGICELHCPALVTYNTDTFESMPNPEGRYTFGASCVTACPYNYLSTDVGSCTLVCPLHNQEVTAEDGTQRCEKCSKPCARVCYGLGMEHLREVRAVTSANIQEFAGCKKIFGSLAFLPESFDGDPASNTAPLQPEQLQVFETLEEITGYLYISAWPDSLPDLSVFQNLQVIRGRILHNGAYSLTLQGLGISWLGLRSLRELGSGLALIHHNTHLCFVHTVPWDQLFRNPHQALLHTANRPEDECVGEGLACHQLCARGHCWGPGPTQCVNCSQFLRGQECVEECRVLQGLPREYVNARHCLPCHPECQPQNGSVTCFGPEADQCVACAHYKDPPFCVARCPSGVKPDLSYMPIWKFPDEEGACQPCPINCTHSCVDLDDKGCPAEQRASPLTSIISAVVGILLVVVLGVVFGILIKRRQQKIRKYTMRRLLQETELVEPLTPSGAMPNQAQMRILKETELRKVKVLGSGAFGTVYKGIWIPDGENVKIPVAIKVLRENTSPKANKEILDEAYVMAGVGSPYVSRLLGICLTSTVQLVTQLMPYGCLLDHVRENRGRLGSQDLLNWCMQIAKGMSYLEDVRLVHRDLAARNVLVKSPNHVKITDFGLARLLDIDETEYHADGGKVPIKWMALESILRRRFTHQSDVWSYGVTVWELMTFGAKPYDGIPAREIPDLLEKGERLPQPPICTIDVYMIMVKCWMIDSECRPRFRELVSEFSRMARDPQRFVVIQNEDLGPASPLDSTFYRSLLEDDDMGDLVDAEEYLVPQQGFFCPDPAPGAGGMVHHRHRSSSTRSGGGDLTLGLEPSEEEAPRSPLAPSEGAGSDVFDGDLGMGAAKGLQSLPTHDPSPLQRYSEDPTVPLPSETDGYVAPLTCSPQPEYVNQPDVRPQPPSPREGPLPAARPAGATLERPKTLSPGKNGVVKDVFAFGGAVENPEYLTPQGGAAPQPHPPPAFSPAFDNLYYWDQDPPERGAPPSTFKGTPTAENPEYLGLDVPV
# Assay type: cell-based
# EXPERIMENTAL PARAMETERS: insect cells
READOUT NAME: IC50

Consider the reported IC50 for these compounds:
{"COMPOUND": "O=C(O)COC(=O)Cc1ccccc1Nc1c(Cl)cccc1Cl [ACECLOFENAC]", "RECORDED VALUE": "Not Active"}
{"COMPOUND": "CO[C@@]12[C@H](COC(N)=O)C3=C(C(=O)C(C)=C(N)C3=O)N1C[C@@H]1N[C@@H]12 [MITOMYCIN]", "RECORDED VALUE": "Not Active"}
{"COMPOUND": "CN1C(=O)OC(C)(C)C1=O [TRIMETHADIONE]", "RECORDED VALUE": "Not Active"}
{"COMPOUND": "CCN(CC)CCNC(=O)c1cc(Cl)c(N)cc1OC [METOCLOPRAMIDE]", "RECORDED VALUE": "Not Active"}
{"COMPOUND": "Nc1nc(N)c2nc(CNc3ccc(C(=O)N[C@@H](CCC(=O)O)C(=O)O)cc3)cnc2n1 [AMINOPTERIN]", "RECORDED VALUE": "Not Active"}

Quick batch: IC50 for everything below.
1. O=C1CN(/N=C/c2ccc([N+](=O)[O-])o2)C(=O)N1 [NITROFURANTOIN]
2. C[C@@H]1[C@H](O)[C@@H](C)/C=C/C=C/C=C/C=C/C=C/C=C/C=C/[C@H](O[C@@H]2O[C@H](C)[C@@H](O)[C@H](N)[C@@H]2O)C[C@@H]2O[C@](O)(C[C@@H](O)C[C@@H](O)[C@H](O)CC[C@@H](O)C[C@@H](O)CC(=O)O[C@H]1C)C[C@H](O)[C@H]2C(=O)O [AMPHOTERICIN B]
3. CC12CCC(CC1)C(C)(C)O2 [EUCALYPTOL]
4. C[C@H](C(=O)O)c1ccc2oc(-c3ccc(F)cc3)nc2c1 [FLUNOXAPROFEN]

["Not Active", "Not Active", "Not Active", "Not Active"]

Provenance of the data: ChEMBL document CHEMBL1909046
